# tested.on: progesterone receptor (Homo sapiens, UniProt P06401)
# Construct: expressed in transfected cells; host or cells: CV-1 cells transduced with PRb-BacMam and MMTV-BacMam
# Sequence (P06401 1-933): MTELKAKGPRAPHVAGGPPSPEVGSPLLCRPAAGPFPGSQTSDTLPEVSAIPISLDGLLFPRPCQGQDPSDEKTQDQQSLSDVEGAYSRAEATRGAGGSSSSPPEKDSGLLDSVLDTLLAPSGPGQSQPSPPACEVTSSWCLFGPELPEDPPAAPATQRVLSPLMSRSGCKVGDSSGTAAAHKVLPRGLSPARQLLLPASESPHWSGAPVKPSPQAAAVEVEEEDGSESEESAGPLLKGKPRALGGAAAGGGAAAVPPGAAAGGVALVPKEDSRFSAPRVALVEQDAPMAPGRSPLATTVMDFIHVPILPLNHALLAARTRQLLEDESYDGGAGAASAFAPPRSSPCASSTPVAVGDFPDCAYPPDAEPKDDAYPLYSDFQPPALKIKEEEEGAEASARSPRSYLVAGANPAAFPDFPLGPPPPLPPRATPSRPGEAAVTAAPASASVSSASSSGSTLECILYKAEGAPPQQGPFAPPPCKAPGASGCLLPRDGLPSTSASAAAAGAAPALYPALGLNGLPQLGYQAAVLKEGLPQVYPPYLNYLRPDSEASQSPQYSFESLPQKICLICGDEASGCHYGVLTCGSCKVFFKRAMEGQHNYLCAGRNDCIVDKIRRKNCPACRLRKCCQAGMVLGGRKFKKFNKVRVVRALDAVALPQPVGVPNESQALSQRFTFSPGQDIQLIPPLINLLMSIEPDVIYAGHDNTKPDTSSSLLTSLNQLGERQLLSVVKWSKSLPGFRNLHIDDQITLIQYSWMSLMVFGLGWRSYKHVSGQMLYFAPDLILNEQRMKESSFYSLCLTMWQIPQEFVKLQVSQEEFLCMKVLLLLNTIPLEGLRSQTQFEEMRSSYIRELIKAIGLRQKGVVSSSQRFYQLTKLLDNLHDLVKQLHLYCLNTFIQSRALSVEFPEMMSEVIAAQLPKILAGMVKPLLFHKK
# assay.notes: Assay for progesterone receptor activity (CV-1 cells, PRb-BacMam/MMTV-BacMam)
# Type: cell-based
# run.parameters: CV-1 cells transduced with PRb-BacMam and MMTV-BacMam; read-out: pEC50 progesterone receptor activity (converted)
Entries and their EC50
readout.kind: EC50

molecule	tested.on	value.reported
Nc1c(C(=O)NCC(O)(CNC(=O)c2c(F)cccc2Br)C(F)(F)F)cnn1-c1ccc(F)cc1 (single isomer, unassigned) [Example 13 Enantiomer 1]	progesterone receptor (Homo sapiens, UniProt P06401)	> 1000 nM
CN(CC(O)(CNC(=O)c1cnn(-c2ccc(F)cc2)c1N)C(F)(F)F)C(=O)c1c(F)cccc1Cl (racemic) [Example 9 (racemic)]	progesterone receptor (Homo sapiens, UniProt P06401)	> 1000 nM
CCN(CC(O)(CNC(=O)c1cnn(-c2cc(F)cc(F)c2)c1N)C(F)(F)F)C(=O)c1c(F)cccc1F (racemic) [Example 35 (racemic)]	progesterone receptor (Homo sapiens, UniProt P06401)	> 1000 nM

---

# Test system: NFκB
# assay.notes: NFκB agonist assay in A549 SPAP cells;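 as to average maximum asymptote in the NFkB assay: maximum inhibition of the TNFα-induced NFκB-driven signal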
# Format: cell-based
# run.parameters: Homo sapiens, A549, A549 SPAP cells; >85% = full agonist, ≧20% = partial or full agonist; read-out: average maximum asymptote in the NFkB assay
readout.kind: Emax

molecule	readout.kind	value.reported
CCN(CC(O)(CNC(=O)c1cnn(-c2ccc(F)cc2)c1N)C(F)(F)F)C(=O)c1c(Cl)cccc1OC(F)F (racemic) [Example 25 (racemic)]	Emax	> 85%
Nc1c(C(=O)NCC(O)(CNC(=O)c2c(Br)cccc2C(F)(F)F)C(F)(F)F)cnn1-c1ccc(F)cc1 (racemic) [Example 45 (racemic)]	Emax	≥ 20%
CN(CC(O)(CNC(=O)c1cnn(-c2ccc(F)cc2)c1N)C(F)(F)F)C(=O)c1c(Cl)cccc1Cl (racemic) [Example 1 (racemic)]	Emax	> 85%
CCN(CC(O)(CNC(=O)c1cnn(-c2ccc(F)cc2)c1N)C(F)(F)F)C(=O)c1ccccc1S(C)(=O)=O (racemic) [Example 10 (racemic)]	Emax	> 85%
Nc1c(C(=O)NCC(O)(CNC(=O)c2c(Br)cccc2Br)C(F)(F)F)cnn1-c1ccc(F)cc1 (single isomer, unassigned) [Example 11 Enantiomer 1]	Emax	≥ 20%
Nc1c(C(=O)NCC(O)(CNC(=O)c2c(F)cccc2OC(F)F)C(F)(F)F)cnn1-c1ccc(F)cc1 (single isomer, unassigned) [Example 48 Enantiomer 1]	Emax	≥ 20%
CCN(CC(O)(CNC(=O)c1cnn(-c2ccccc2Cl)c1N)C(F)(F)F)C(=O)c1c(F)cccc1F (racemic) [Example 40 (racemic)]	Emax	> 85%
CN(CC(O)(CNC(=O)c1cnn(-c2ccc(F)cc2)c1N)C(F)(F)F)C(=O)c1c(F)cccc1F (racemic) [Example 8 (racemic)]	Emax	> 85%
CN(CC(O)(CNC(=O)c1cnn(-c2ccc(F)cc2)c1N)C(F)(F)F)C(=O)c1c(F)cccc1C(F)(F)F (racemic) [Example 21 (racemic)]	Emax	> 85%
Nc1c(C(=O)NCC(O)(CN(CCF)C(=O)c2c(Cl)cccc2OC(F)F)C(F)(F)F)cnn1-c1ccc(F)cc1 (racemic) [Example 31 (racemic)]	Emax	> 85%
Nc1c(C(=O)NCC(O)(CNC(=O)c2c(F)cccc2Br)C(F)(F)F)cnn1-c1ccc(F)cc1 (racemic) [Example 13 (racemic)]	Emax	≥ 20%
Nc1c(C(=O)NCC(O)(CNC(=O)c2c(F)cccc2Cl)C(F)(F)F)cnn1-c1ccc(F)cc1 (racemic) [Example 7 (racemic)]	Emax	≥ 20%

---

# Tested on: NFκB
# assay.notes: NFκB agonist assay in A549 SPAP cells
# Type: cell-based
# run.parameters: Homo sapiens; A549 SPAP cells, TNFα 3.2 ng/ml; read-out: pIC50 for the NFkB assay (converted)
Entries and their IC50
readout.kind: IC50

compound	value.reported
CCN(CC(O)(CNC(=O)c1cnn(-c2ccccc2F)c1N)C(F)(F)F)C(=O)c1c(F)cccc1F (racemic) [Example 42 (racemic)]	< 1000 nM
CCN(CC(O)(CNC(=O)c1cnn(-c2cc(F)cc(F)c2)c1N)C(F)(F)F)C(=O)c1c(F)cccc1F (racemic) [Example 35 (racemic)]	< 1000 nM
Nc1c(C(=O)NCC(O)(CNC(=O)c2c(F)cccc2Cl)C(F)(F)F)cnn1-c1ccc(F)cc1 (racemic) [Example 7 (racemic)]	< 1000 nM
Nc1c(C(=O)NCC(O)(CN(CCF)C(=O)c2c(OC(F)F)cccc2OC(F)F)C(F)(F)F)cnn1-c1ccc(F)cc1 (racemic) [Example 32 (racemic)]	< 1000 nM
Nc1c(C(=O)NCC(O)(CNC(=O)c2c(F)cccc2Br)C(F)(F)F)cnn1-c1ccc(F)cc1 (racemic) [Example 13 (racemic)]	< 1000 nM
CN(CC(O)(CNC(=O)c1cnn(-c2ccc(F)cc2)c1N)C(F)(F)F)C(=O)c1c(Cl)cccc1Cl (racemic) [Example 1 (racemic)]	< 1000 nM

---

# assay.notes: Assay for brain penetrance
# Type: in vivo
# run.parameters: brain and plasma, rat, single intravenous dose 1 mg/kg, read-out: brain to plasma ratio
# Procedure: Each rat received a single intravenous dose at a level of 1 mg/kg. The dose was formulated in 10% DMSO/50% PEG200/40% sterile water. Terminal blood samples were taken at 5 or 15 minutes after dosing, by cardiac puncture following anaesthesia with isofluorane. The brains were removed at the same time point. The compounds were extracted from 20 μL plasma by protein precipitation using 120 μL acetonitrile containing an analogue compound as an internal standard. […]
Entries and their Kp at 5 min
readout.kind: Kp at 5 min

molecule	value.reported
CCN(CC(O)(CNC(=O)c1cnn(-c2ccc(F)cc2)c1N)C(F)(F)F)C(=O)c1c(F)cccc1F (single isomer, unassigned) [Example 5 Enantiomer 1]	≥ 0.1
CN(CC(O)(CNC(=O)c1cnn(-c2ccc(F)cc2)c1N)C(F)(F)F)C(=O)c1c(Cl)cccc1Cl (single isomer, unassigned) [Example 1 Enantiomer 1]	≥ 0.1

---

# Tested on: NFκB
# assay.notes: NFκB agonist assay in A549 SPAP cells;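 as to average maximum asymptote in the NFkB assay: maximum inhibition of the TNFα-induced NFκB-driven signal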
# Assay type: cell-based
# run.parameters: Homo sapiens, A549, A549 SPAP cells; >85% = full agonist, ≧20% = partial or full agonist; read-out: average maximum asymptote in the NFkB assay
Entries and their Emax
readout.kind: Emax

molecule	value.reported
Nc1c(C(=O)NCC(O)(CNC(=O)c2c(F)cccc2Br)C(F)(F)F)cnn1-c1ccc(F)cc1 (single isomer, unassigned) [Example 13 Enantiomer 1]	≥ 20%
CN(CC(O)(CNC(=O)c1cnn(-c2ccc(F)cc2)c1N)C(F)(F)F)C(=O)c1c(F)cccc1Cl (racemic) [Example 9 (racemic)]	> 85%
CCN(CC(O)(CNC(=O)c1cnn(-c2c(F)cccc2F)c1N)C(F)(F)F)C(=O)c1c(F)cccc1F (racemic) [Example 37 (racemic)]	> 85%
CCN(CC(O)(CNC(=O)c1cnn(-c2cc(F)ccc2F)c1N)C(F)(F)F)C(=O)c1c(F)cccc1F (racemic) [Example 36 (racemic)]	> 85%
Nc1c(C(=O)NCC(O)(CNC(=O)c2c(Cl)cccc2Br)C(F)(F)F)cnn1-c1ccc(F)cc1 (racemic) [Example 12 (racemic)]	≥ 20%
Nc1c(C(=O)NCC(O)(CN(CCF)C(=O)c2c(F)cccc2Cl)C(F)(F)F)cnn1-c1ccc(F)cc1 (racemic) [Example 29 (racemic)]	> 85%
CCN(CC(O)(CNC(=O)c1cnn(-c2ccc(F)cc2)c1N)C(F)(F)F)C(=O)c1c(C(F)(F)F)cccc1C(F)(F)F (racemic) [Example 27 (racemic)]	> 85%
CCN(CC(O)(CNC(=O)c1cnn(-c2ccc(F)cc2)c1N)C(F)(F)F)C(=O)c1ccccc1S(C)(=O)=O (single isomer, unassigned) [Example 10 Enantiomer 1]	> 85%
CCN(CC(O)(CNC(=O)c1cnn(-c2ccc(Cl)cc2)c1N)C(F)(F)F)C(=O)c1c(F)cccc1F (racemic) [Example 39 (racemic)]	> 85%
Nc1c(C(=O)NCC(O)(CNC(=O)c2c(C(F)(F)F)cccc2C(F)(F)F)C(F)(F)F)cnn1-c1ccc(F)cc1 (single isomer, unassigned) [Example 15 Enantiomer 1]	≥ 20%
Nc1c(C(=O)NCC(O)(CNC(=O)c2c(Br)cccc2C(F)(F)F)C(F)(F)F)cnn1-c1ccc(F)cc1 (single isomer, unassigned) [Example 45 Enantiomer 1]	≥ 20%
Nc1c(C(=O)NCC(O)(CNC(=O)c2c(F)cccc2C(F)(F)F)C(F)(F)F)cnn1-c1ccc(F)cc1 (single isomer, unassigned) [Example 19 Enantiomer 1]	≥ 20%
CCN(CC(O)(CNC(=O)c1cnn(-c2ccc(F)cc2)c1N)C(F)(F)F)C(=O)c1c(Cl)cccc1Br (racemic) [Example 24 (racemic)]	> 85%
Nc1c(C(=O)NCC(O)(CNC(=O)c2c(Br)cccc2Br)C(F)(F)F)cnn1-c1ccc(F)cc1 (racemic) [Example 11 (racemic)]	≥ 20%
Nc1c(C(=O)NCC(O)(CNC(=O)c2c(F)cccc2C(F)(F)F)C(F)(F)F)cnn1-c1ccc(F)cc1 (racemic) [Example 19 (racemic)]	≥ 20%
Nc1c(C(=O)NCC(O)(CNC(=O)c2c(Cl)cccc2OC(F)F)C(F)(F)F)cnn1-c1ccc(F)cc1 (racemic) [Example 14 (racemic)]	≥ 20%
Nc1c(C(=O)NCC(O)(CNC(=O)c2c(Cl)cccc2C(F)(F)F)C(F)(F)F)cnn1-c1ccc(F)cc1 (single isomer, unassigned) [Example 44 Enantiomer 1]	≥ 20%
CCN(CC(O)(CNC(=O)c1cnn(-c2cccc(F)c2)c1N)C(F)(F)F)C(=O)c1c(F)cccc1F (racemic) [Example 38 (racemic)]	> 85%
CCN(CC(O)(CNC(=O)c1cnn(-c2ccccc2F)c1N)C(F)(F)F)C(=O)c1c(F)cccc1F (racemic) [Example 42 (racemic)]	> 85%
Nc1c(C(=O)NCC(O)(CN(CCF)C(=O)c2c(Cl)cccc2Br)C(F)(F)F)cnn1-c1ccc(F)cc1 (racemic) [Example 30 (racemic)]	> 85%
CCN(CC(O)(CNC(=O)c1cnn(-c2ccc(F)cc2)c1N)C(F)(F)F)C(=O)c1c(F)cccc1Cl (racemic) [Example 4 (racemic)]	> 85%
Nc1c(C(=O)NCC(O)(CNC(=O)c2c(Cl)cccc2Cl)C(F)(F)F)cnn1-c1ccc(F)cc1 (racemic) [Example 3 (racemic)]	≥ 20%
